# Test system: KM12
# method: NCI-60 anticancer screen (SRB; single dose and five doses)
# test.context: Homo sapiens, KM12, read-out: TGI
Listing of entries alongside the reported IC (TGI).
State just the number; it will be interpreted in µM.

Worked set:
{"molecule": "Cc1[nH]c(=S)sc1C(=O)/C=C/c1ccc([N+](=O)[O-])cc1 [2i]", "target.system": "KM12", "number": 13.6}
{"molecule": "Cc1[nH]c(=S)sc1C(=O)/C=C/c1cccc([N+](=O)[O-])c1 [2h]", "target.system": "KM12", "number": 13.2}
{"molecule": "COc1cc(/C=C/C(=O)c2sc(=S)[nH]c2C)cc(OC)c1OC [2p]", "target.system": "KM12", "number": 13.8}
{"molecule": "Cc1[nH]c(=S)sc1C(=O)/C=C/c1ccc(F)cc1 [2c]", "target.system": "KM12", "number": 15.4}
{"molecule": "Cc1[nH]c(=S)sc1C(=O)/C=C/c1cccc(Cl)c1 [2e]", "target.system": "KM12", "number": 3.89}
{"molecule": "Cc1[nH]c(=S)sc1C(=O)/C=C/c1ccc(Cl)cc1 [2f]", "target.system": "KM12", "number": 16.6}

Provide measured IC (TGI) value, entry: Cc1[nH]c(=S)sc1C(=O)/C=C/c1ccc(Br)cc1 [2g]
11

----------
# Test system: A498
# method: NCI-60 anticancer screen (SRB; single dose and five doses)
# test.context: Homo sapiens, A498, 48 h, read-out: Growth Percentage, A498; dose of 10 μM
Listing of entries alongside the reported activity at 10 µM.
The answer should read as a number with its unit following.

Worked set:
{"chemical.structure": "COc1cccc(/C=C/C(=O)c2sc(=S)[nH]c2C)c1OC", "target.system": "A498", "result": "109%"}
{"chemical.structure": "Cc1[nH]c(=S)sc1C(=O)/C=C/c1ccccc1Cl", "target.system": "A498", "result": "116%"}
{"chemical.structure": "Cc1[nH]c(=S)sc1C(=O)/C=C/c1ccc(Cl)cc1", "target.system": "A498", "result": "106%"}
{"chemical.structure": "Cc1ccc(/C=C/C(=O)c2sc(=S)[nH]c2C)cc1", "target.system": "A498", "result": "131%"}
{"chemical.structure": "Cc1[nH]c(=S)sc1C(=O)/C=C/c1cccc(F)c1", "target.system": "A498", "result": "106%"}
{"chemical.structure": "COc1ccc(/C=C/C(=O)c2sc(=S)[nH]c2C)c(OC)c1", "target.system": "A498", "result": "101%"}
{"chemical.structure": "Cc1[nH]c(=S)sc1C(=O)/C=C/c1cccc(Cl)c1", "target.system": "A498", "result": "98%"}
{"chemical.structure": "COc1cc(/C=C/C(=O)c2sc(=S)[nH]c2C)cc(OC)c1OC", "target.system": "A498", "result": "96.5%"}
{"chemical.structure": "Cc1[nH]c(=S)sc1C(=O)/C=C/c1ccc(Br)cc1", "target.system": "A498", "result": "109%"}
{"chemical.structure": "Cc1[nH]c(=S)sc1C(=O)/C=C/c1ccc(F)cc1", "target.system": "A498", "result": "115%"}

Provide measured activity at 10 µM value, entry: Cc1[nH]c(=S)sc1C(=O)/C=C/c1ccccc1
106%

----------
# Tested on: SNB-19
# method: cells
# test.context: Homo sapiens, SNB-19, 48 h, read-out: Growth Percentage
measurement.name: activity at 10 µM (%)
State just the number; it will be interpreted in %.

Worked set:
{"chemical.structure": "Cc1[nH]c(=S)sc1C(=O)/C=C/c1ccc(Cl)cc1", "measurement.name": "activity at 10 µM", "number": 15.8}
{"chemical.structure": "Cc1[nH]c(=S)sc1C(=O)/C=C/c1ccccc1", "measurement.name": "activity at 10 µM", "number": 66.8}

Provide measured activity at 10 µM value, entry: COc1cc(/C=C/C(=O)c2sc(=S)[nH]c2C)cc(OC)c1OC
19.6

Provide measured activity at 10 µM value, entry: Cc1[nH]c(=S)sc1C(=O)/C=C/c1cccc([N+](=O)[O-])c1
10.4

----------
# Test system: CCRF-CEM
# method: NCI-60 anticancer screen (SRB; single dose 10 μM and five doses)
# test.context: Homo sapiens, five-dose, Leukemia CCRF-CEM
Listing of entries alongside the reported IC50.
State just the number; it will be interpreted in µM.

{"chemical.structure": "Cc1[nH]c(=S)sc1C(=O)/C=C/c1ccc(Cl)cc1", "measurement.name": "IC50", "units.of.measure": "µM", "number": 3.98}
{"chemical.structure": "COc1cc(/C=C/C(=O)c2sc(=S)[nH]c2C)cc(OC)c1OC", "measurement.name": "IC50", "units.of.measure": "µM", "number": 3.55}

Now, please, on to the next compound.
Provide measured IC50 value, entry: Cc1[nH]c(=S)sc1C(=O)/C=C/c1cccc([N+](=O)[O-])c1
3.39

----------
# System: CCRF-CEM
measurement.name: GI50 (µM)
State just the number; it will be interpreted in µM.

Provide measured GI50 value, entry: COc1cc(/C=C/C(=O)c2sc(=S)[nH]c2C)cc(OC)c1OC
2.45

Provide measured GI50 value, entry: Cc1[nH]c(=S)sc1C(=O)/C=C/c1ccc(Br)cc1
3.06

Provide measured GI50 value, entry: Cc1[nH]c(=S)sc1C(=O)/C=C/c1cccc(Cl)c1
2.45

Provide measured GI50 value, entry: Cc1[nH]c(=S)sc1C(=O)/C=C/c1ccc([N+](=O)[O-])cc1
4.56

Provide measured GI50 value, entry: Cc1[nH]c(=S)sc1C(=O)/C=C/c1cccc([N+](=O)[O-])c1
2.14

Provide measured GI50 value, entry: Cc1[nH]c(=S)sc1C(=O)/C=C/c1ccc(Cl)cc1
2.88

Provide measured GI50 value, entry: Cc1[nH]c(=S)sc1C(=O)/C=C/c1ccc(F)cc1
3.68

----------
# System: SNB-75
# method: NCI-60 anticancer screen (SRB; single dose and five doses)
# test.context: Homo sapiens, SNB-75, 48 h, read-out: Growth Percentage
Threshold 60%. activity at 10 µM below it: Y. activity at 10 µM at it or above: N.

Here's what some known entries look like.
{"chemical.structure": "COc1ccc(/C=C/C(=O)c2sc(=S)[nH]c2C)cc1", "class": "N"}
{"chemical.structure": "Cc1[nH]c(=S)sc1C(=O)/C=C/c1cccc(Cl)c1", "class": "Y"}
{"chemical.structure": "Cc1ccc(/C=C/C(=O)c2sc(=S)[nH]c2C)cc1", "class": "N"}
{"chemical.structure": "Cc1[nH]c(=S)sc1C(=O)/C=C/c1ccc(N(C)C)cc1", "class": "N"}
{"chemical.structure": "Cc1[nH]c(=S)sc1C(=O)/C=C/c1ccc(F)cc1", "class": "Y"}
{"chemical.structure": "COc1ccc(/C=C/C(=O)c2sc(=S)[nH]c2C)cc1OC", "class": "Y"}
{"chemical.structure": "Cc1[nH]c(=S)sc1C(=O)/C=C/c1ccc(Br)cc1", "class": "Y"}
{"chemical.structure": "Cc1[nH]c(=S)sc1C(=O)/C=C/c1ccc([N+](=O)[O-])cc1", "class": "Y"}
{"chemical.structure": "COc1cccc(/C=C/C(=O)c2sc(=S)[nH]c2C)c1OC", "class": "Y"}

Attention now turns to another entry.
Hi there! Is activity at 10 µM for Cc1[nH]c(=S)sc1C(=O)/C=C/c1ccccc1 below 60%, do you know?
N

----------
Listing of entries alongside the reported CC50.
# Tested on: SF-295
# method: NCI-60 anticancer screen (SRB; single dose and five doses)
# test.context: Homo sapiens, SF-295, read-out: LC50
State just the number; it will be interpreted in µM.

Worked set:
{"compound": "Cc1[nH]c(=S)sc1C(=O)/C=C/c1ccc(Cl)cc1 [2f]", "CC50 / µM": 55}
{"compound": "COc1cc(/C=C/C(=O)c2sc(=S)[nH]c2C)cc(OC)c1OC [2p]", "CC50 / µM": 66.1}
{"compound": "Cc1[nH]c(=S)sc1C(=O)/C=C/c1ccc(Br)cc1 [2g]", "CC50 / µM": 52.7}
{"compound": "Cc1[nH]c(=S)sc1C(=O)/C=C/c1cccc(Cl)c1 [2e]", "CC50 / µM": 43.6}
{"compound": "Cc1[nH]c(=S)sc1C(=O)/C=C/c1cccc([N+](=O)[O-])c1 [2h]", "CC50 / µM": 39.8}

State the measured CC50 (SF-295) of Cc1[nH]c(=S)sc1C(=O)/C=C/c1ccc(F)cc1 [2c]
52.9

State the measured CC50 (SF-295) of Cc1[nH]c(=S)sc1C(=O)/C=C/c1ccc([N+](=O)[O-])cc1 [2i]
56.5
